system: UMC-11; experiment: relative viability (nuclei count vs DMSO), 5 days (fraction); higher = more cells survive; conditions: first compound 8 µM
METRIC_NAME: relative viability
Respond with the number and no other words.

In the examples that follow, each entry is paired with its recorded relative viability.
COMPOUND	relative viability
Nc1cccc2c1CN(C1CCC(=O)NC1=O)C2=O (stereo unspecified) [Lenalidomide] + N=C(N)NC(=N)NCCc1ccccc1 [Phenformin] (partner 250 µM)	0.339
Nc1cccc2c1CN(C1CCC(=O)NC1=O)C2=O (stereo unspecified) [Lenalidomide] + Cc1nc(NC(=O)N2CCC[C@H]2C(N)=O)sc1-c1ccnc(C(C)(C)C(F)(F)F)c1 [Alpelisib] (partner 2 µM)	0.958
Nc1cccc2c1CN(C1CCC(=O)NC1=O)C2=O (stereo unspecified) [Lenalidomide] + Nc1ncn([C@H]2C[C@H](O)[C@@H](CO)O2)c(=O)n1 [Decitabine] (partner 2 µM)	0.621
Nc1cccc2c1CN(C1CCC(=O)NC1=O)C2=O (stereo unspecified) [Lenalidomide] + Nc1nc2[nH]cc(CCc3ccc(C(=O)N[C@@H](CCC(=O)O)C(=O)O)cc3)c2c(=O)[nH]1 [Pemetrexed] (partner 0.2 µM)	0.8
Nc1cccc2c1CN(C1CCC(=O)NC1=O)C2=O (stereo unspecified) [Lenalidomide] + CC1(C)CCC(c2ccc(Cl)cc2)=C(CN2CCN(c3ccc(C(=O)NS(=O)(=O)c4ccc(N[C@H](CCN5CCOCC5)CSc5ccccc5)c(S(=O)(=O)C(F)(F)F)c4)cc3)CC2)C1 [Navitoclax] (partner 0.5 µM)	0.277

Read the next record carefully.
Quick one: relative viability for Nc1cccc2c1CN(C1CCC(=O)NC1=O)C2=O (stereo unspecified) [Lenalidomide] + CC(=O)c1c(C)c2cnc(Nc3ccc(N4CCNCC4)cn3)nc2n(C2CCCC2)c1=O [Palbociclib] (partner 0.5 µM) ? 0.285

###

tested on: NCI-H2087; test: relative viability (nuclei count vs DMSO), 5 days (fraction); higher = more cells survive; conditions: first compound 0.1 µM
relative viability listing for selected molecules.
Respond with the number and no other words.

Quick one: relative viability for Cc1cn(-c2cc(NC(=O)c3ccc(C)c(Nc4nccc(-c5cccnc5)n4)c3)cc(C(F)(F)F)c2)cn1 [Nilotinib] + C[C@]1(O)C[C@@H](c2nc(-c3ccc4ccc(-c5ccccc5)nc4c3)c3c(N)nccn32)C1 [Linsitinib] (partner 1 µM) ? 0.66

Field entry: Cc1cn(-c2cc(NC(=O)c3ccc(C)c(Nc4nccc(-c5cccnc5)n4)c3)cc(C(F)(F)F)c2)cn1 [Nilotinib] + Nc1nc2[nH]cc(CCc3ccc(C(=O)N[C@@H](CCC(=O)O)C(=O)O)cc3)c2c(=O)[nH]1 [Pemetrexed] (partner 0.2 µM) 0.341

###

test system: EKVX; assay: relative viability (nuclei count vs DMSO), 5 days (fraction); higher = more cells survive; details: first compound 2 µM
relative viability listing for selected molecules.
Respond with the number and no other words.

MOLECULE	TARGET	METRIC_NAME	DATA_VALUE
CN1CCN(CCOc2cc(OC3CCOCC3)c3c(Nc4c(Cl)ccc5c4OCO5)ncnc3c2)CC1 [Saracatinib] + Nc1ncn([C@H]2C[C@H](O)[C@@H](CO)O2)c(=O)n1 [Decitabine] (partner 2 µM)	EKVX	relative viability	0.211

Quick one: relative viability for Cc1csc(=NC2CCCCC2)n1/N=C/c1ccc(O)c(O)c1O [MIM1] + CC1(C)CCC(c2ccc(Cl)cc2)=C(CN2CCN(c3ccc(C(=O)NS(=O)(=O)c4ccc(N[C@H](CCN5CCOCC5)CSc5ccccc5)c(S(=O)(=O)C(F)(F)F)c4)cc3)CC2)C1 [Navitoclax] (partner 0.5 µM) ? 0.965

###

relative viability listing for selected compounds.
system: BEN; assay: relative viability (nuclei count vs DMSO), 5 days (fraction); higher = more cells survive; settings: first compound 2.53 µM

COMPOUND	relative viability
Nc1cccc2c1CN(C1CCC(=O)NC1=O)C2=O (stereo not drawn) [Lenalidomide] + Nc1ncn([C@H]2C[C@H](O)[C@@H](CO)O2)c(=O)n1 [Decitabine] (partner 2 µM)	0.766
Nc1cccc2c1CN(C1CCC(=O)NC1=O)C2=O (stereo not drawn) [Lenalidomide] + N=C(N)NC(=N)NCCc1ccccc1 [Phenformin] (partner 250 µM)	0.285
Nc1cccc2c1CN(C1CCC(=O)NC1=O)C2=O (stereo not drawn) [Lenalidomide] + Cc1nc(Nc2ncc(C(=O)Nc3c(C)cccc3Cl)s2)cc(N2CCN(CCO)CC2)n1 [Dasatinib] (partner 0.075 µM)	0.293
Nc1cccc2c1CN(C1CCC(=O)NC1=O)C2=O (stereo not drawn) [Lenalidomide] + CS(=O)(=O)CCNCc1ccc(-c2ccc3ncnc(Nc4ccc(OCc5cccc(F)c5)c(Cl)c4)c3c2)o1 [Lapatinib] (partner 2 µM)	0.918
Nc1cccc2c1CN(C1CCC(=O)NC1=O)C2=O (stereo not drawn) [Lenalidomide] + C[C@]1(O)C[C@@H](c2nc(-c3ccc4ccc(-c5ccccc5)nc4c3)c3c(N)nccn32)C1 [Linsitinib] (partner 1 µM)	1.09
Nc1cccc2c1CN(C1CCC(=O)NC1=O)C2=O (stereo not drawn) [Lenalidomide] + COc1cccc2cc(-c3nc([C@H]4CC[C@H](C(=O)O)CC4)n4ncnc(N)c34)[nH]c12 [OSI-027] (partner 0.5 µM)	0.316

Recorded relative viability for Nc1cccc2c1CN(C1CCC(=O)NC1=O)C2=O (stereo not drawn) [Lenalidomide] + Nc1nc2[nH]cc(CCc3ccc(C(=O)N[C@@H](CCC(=O)O)C(=O)O)cc3)c2c(=O)[nH]1 [Pemetrexed] (partner 0.2 µM) with BEN, please? 0.737

Field entry: Nc1cccc2c1CN(C1CCC(=O)NC1=O)C2=O (stereo not drawn) [Lenalidomide] + C[C@@H](Oc1cc(-c2cnn(C3CCNCC3)c2)cnc1N)c1c(Cl)ccc(F)c1Cl [Crizotinib] (partner 1 µM) 1.07

###

tested on: LC-2-ad; assay: relative viability (nuclei count vs DMSO), 5 days (fraction); higher = more cells survive; conditions: first compound 0.253 µM
Binary call on relative viability with cut-off 0.8: strictly below means true, and equality or higher means false.

# example entries with known answers
COMPOUND	TARGET	LABEL_VALUE
Nc1cccc2c1CN(C1CCC(=O)NC1=O)C2=O (stereo unspecified) [Lenalidomide] + C[C@]1(O)C[C@@H](c2nc(-c3ccc4ccc(-c5ccccc5)nc4c3)c3c(N)nccn32)C1 [Linsitinib] (partner 1 µM)	LC-2-ad	false
Nc1cccc2c1CN(C1CCC(=O)NC1=O)C2=O (stereo unspecified) [Lenalidomide] + CS(=O)(=O)N1CCN(Cc2cc3nc(-c4cccc5[nH]ncc45)nc(N4CCOCC4)c3s2)CC1 [Pictilisib] (partner 1 µM)	LC-2-ad	true
Nc1cccc2c1CN(C1CCC(=O)NC1=O)C2=O (stereo unspecified) [Lenalidomide] + CC(=O)c1c(C)c2cnc(Nc3ccc(N4CCNCC4)cn3)nc2n(C2CCCC2)c1=O [Palbociclib] (partner 0.5 µM)	LC-2-ad	true
Nc1cccc2c1CN(C1CCC(=O)NC1=O)C2=O (stereo unspecified) [Lenalidomide] + CS(=O)(=O)CCNCc1ccc(-c2ccc3ncnc(Nc4ccc(OCc5cccc(F)c5)c(Cl)c4)c3c2)o1 [Lapatinib] (partner 2 µM)	LC-2-ad	false
Nc1cccc2c1CN(C1CCC(=O)NC1=O)C2=O (stereo unspecified) [Lenalidomide] + N=C(N)NC(=N)NCCc1ccccc1 [Phenformin] (partner 250 µM)	LC-2-ad	true

# next compound below
For Nc1cccc2c1CN(C1CCC(=O)NC1=O)C2=O (stereo unspecified) [Lenalidomide] + COc1cc2c(Oc3ccc(NC(=O)C4(C(=O)Nc5ccc(F)cc5)CC4)cc3F)ccnc2cc1OCCCN1CCOCC1 [Foretinib] (partner 0.25 µM) , is the recorded relative viability below the cut-off of 0.8? false

###

relative viability listing for selected compounds.
test system: NCI-H2085; assay: relative viability (nuclei count vs DMSO), 5 days (fraction); higher = more cells survive; conditions: first compound 0.03162 µM
Respond with the number and no other words.

In the examples that follow, each entry is paired with its recorded relative viability.
COMPOUND	relative viability
Cc1cn(-c2cc(NC(=O)c3ccc(C)c(Nc4nccc(-c5cccnc5)n4)c3)cc(C(F)(F)F)c2)cn1 [Nilotinib] + C[C@@H](Oc1cc(-c2cnn(C3CCNCC3)c2)cnc1N)c1c(Cl)ccc(F)c1Cl [Crizotinib] (partner 1 µM)	0.721
Cc1cn(-c2cc(NC(=O)c3ccc(C)c(Nc4nccc(-c5cccnc5)n4)c3)cc(C(F)(F)F)c2)cn1 [Nilotinib] + CC1(C)CCC(c2ccc(Cl)cc2)=C(CN2CCN(c3ccc(C(=O)NS(=O)(=O)c4ccc(N[C@H](CCN5CCOCC5)CSc5ccccc5)c(S(=O)(=O)C(F)(F)F)c4)cc3)CC2)C1 [Navitoclax] (partner 0.5 µM)	0.957
Cc1cn(-c2cc(NC(=O)c3ccc(C)c(Nc4nccc(-c5cccnc5)n4)c3)cc(C(F)(F)F)c2)cn1 [Nilotinib] + Nc1nc2[nH]cc(CCc3ccc(C(=O)N[C@@H](CCC(=O)O)C(=O)O)cc3)c2c(=O)[nH]1 [Pemetrexed] (partner 0.2 µM)	0.932

Read the next record carefully.
Quick one: relative viability for Cc1cn(-c2cc(NC(=O)c3ccc(C)c(Nc4nccc(-c5cccnc5)n4)c3)cc(C(F)(F)F)c2)cn1 [Nilotinib] + CS(=O)(=O)N1CCN(Cc2cc3nc(-c4cccc5[nH]ncc45)nc(N4CCOCC4)c3s2)CC1 [Pictilisib] (partner 1 µM) ? 0.466
